tested on: diamondback moths; assay: Test Example 2: pesticidal effects on diamondback moth larvae, sprayed Chinese cabbage; format: in vivo; conditions: relative to DDVP, defined as 1.0
Listing of recorded Ratio of effect by entry.
Reply with just the number.

Below, each entry is followed by its recorded Ratio of effect result.
CC1(C)C(C=C(Cl)Cl)C1C(=O)OC/C=C(\Br)Cc1ccccc1 (stereo not shown) [(2)] : 6.6
CC(=CCOC(=O)C1C(C=C(Cl)Cl)C1(C)C)Cc1ccccc1 (stereo not shown) [(4)] : 4.9
CC1(C)C(C=C(Cl)Cl)C1C(=O)OC/C=C(\Cl)Cc1ccccc1 (stereo not shown) [(1)] : 8.6

Using the record for CC1(C)C(C=C(Cl)Cl)C1C(=O)OC/C=C/Cc1ccccc1 (stereo not shown) [(3)] , report its Ratio of effect.
7.7
